- Study target: CDK2 (Homo sapiens, UniProt P24941)
- Construct: endogenous in cells; host or cells: MDA-MB-231
- Assay comment: CDK protein degradation activity (Western blotting), CDK2
- Assay type: cell-based
- Condition: MDA-MB-231 cells, 1 μM, 16 hours, Western blot
Measurement type: Enzyme degradation CDK2 (% remaining) @ 1 μM (%)
Write the number in % without appending the unit.

In the examples that follow, each entry is paired with its recorded Enzyme degradation CDK2 (% remaining) @ 1 μM.
Cc1cccc(C(=O)N[C@H]2C[C@@H](n3cnc4c(NC5CCN(CCOC6CCN(C(=O)COc7ccc8c(c7)C(=O)N([C@H]7CCC(=O)NC7=O)C8=O)CC6)CC5)ncnc43)C2)n1 = 60
O=C1CC[C@H](N2C(=O)c3ccc(OCC(=O)N4CCC5(CC4)CC(N4CCN(c6ccc(Nc7ncnc8c7ncn8[C@H]7C[C@@H](NC(=O)Cc8ccccc8)C7)cc6)CC4)C5)cc3C2=O)C(=O)N1 = 70
O=C1CC[C@H](N2C(=O)c3ccc(OCC(=O)N4CCC(CN5CCC(c6ccc(Nc7ncnc8c7ncn8C7CC(NC(=O)Cc8ccccc8)C7)cc6)CC5)CC4)cc3C2=O)C(=O)N1 (stereo partly shown) = 60
O=C1CC[C@H](N2C(=O)c3ccc(N4CC(C(=O)N5CCC6(CC5)CC(N5CCN(c7ccc(Nc8ncnc9c8ncn9[C@H]8C[C@@H](NC(=O)Cc9ccccc9)C8)cc7)CC5)C6)C4)cc3C2=O)C(=O)N1 = 70
Cc1cccc(C(=O)NC2CC(n3cnc4c(Nc5ccc(N6CCN(CCC7CCN(c8cc9c(cc8F)C(=O)N([C@H]8CCC(=O)NC8=O)C9=O)CC7)CC6)cc5)ncnc43)C2)n1 (stereo partly shown) = 20

Okay, next one:
Entry N#Cc1cccc(C(=O)NC2CC(n3cnc4c(Nc5ccc(N6CCN(CC7CCN(C(=O)C8CN(c9ccc%10c(c9)C(=O)N([C@H]9CCC(=O)NC9=O)C%10=O)C8)CC7)CC6)cc5)ncnc43)C2)n1 (stereo partly shown) , CDK2 (Homo sapiens, UniProt P24941) data, Enzyme degradation CDK2 (% remaining) @ 1 μM value: 20

---

- Study target: CDK9 (Homo sapiens, UniProt P50750)
- Construct: endogenous in cells; host or cells: MDA-MB-231
- Sequence (P50750 whole entry): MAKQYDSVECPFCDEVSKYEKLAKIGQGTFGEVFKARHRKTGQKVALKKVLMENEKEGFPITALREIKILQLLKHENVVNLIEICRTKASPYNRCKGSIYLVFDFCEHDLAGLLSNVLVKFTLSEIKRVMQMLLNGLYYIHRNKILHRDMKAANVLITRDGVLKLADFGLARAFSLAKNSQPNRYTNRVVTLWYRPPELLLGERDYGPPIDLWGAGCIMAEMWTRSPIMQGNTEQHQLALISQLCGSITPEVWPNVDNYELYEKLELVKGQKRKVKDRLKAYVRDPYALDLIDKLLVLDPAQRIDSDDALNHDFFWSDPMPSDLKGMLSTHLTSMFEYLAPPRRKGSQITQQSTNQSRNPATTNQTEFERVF
- Assay comment: CDK protein degradation activity (Western blotting), CDK9
- Format: cell-based
- Condition: MDA-MB-231 cells, 1 μM, 16 hours, Western blot
Measurement type: Enzyme degradation CDK9 (% remaining) @ 1 μM (%)
Write the number in % without appending the unit.

In the examples that follow, each entry is paired with its recorded Enzyme degradation CDK9 (% remaining) @ 1 μM.
O=C1CC[C@H](N2C(=O)c3ccc(N4CCC(CN5CCN(c6ccc(Nc7ncnc8c7ncn8[C@H]7C[C@@H](NC(=O)Cc8ccccc8)C7)cc6)CC5)CC4)cc3C2=O)C(=O)N1 = 0
Cc1cccc(C(=O)NC2CC(n3cnc4c(NCc5cccc(N6CCN(CC7CCN(C(=O)COc8ccc9c(c8)C(=O)N([C@H]8CCC(=O)NC8=O)C9=O)CC7)CC6)c5)ncnc43)C2)n1 (stereo partly shown) = 0
COc1ccc(C(=O)N2CC(CN3CCC4(CC3)CC(N3CCN(c5ccc(Nc6ncnc7c6ncn7[C@H]6C[C@@H](NC(=O)Cc7ccccc7)C6)cc5)CC3)C4)C2)cc1N1CCC(=O)NC1=O = 10

Entry `O=C1CC[C@H](N2C(=O)c3ccc(N4CCC(C(=O)N5CCN(C6CC7(CCN(c8ccc(Nc9ncnc%10c9ncn%10[C@H]9C[C@@H](NC(=O)Cc%10ccccc%10)C9)cc8)CC7)C6)CC5)CC4)cc3C2=O)C(=O)N1` , CDK9 (Homo sapiens, UniProt P50750) data, Enzyme degradation CDK9 (% remaining) @ 1 μM value: 10

Entry O=C1CC[C@H](n2nnc3ccc(N4CCN(CCCC5CCN(c6ccc(Nc7ncnc8c7ncn8C7CC(NC(=O)Cc8ccccc8)C7)cc6)CC5)CC4)cc3c2=O)C(=O)N1 (stereo partly shown) , CDK9 (Homo sapiens, UniProt P50750) data, Enzyme degradation CDK9 (% remaining) @ 1 μM value: 20
